Where do the numbers come from? From patent US20040229268A1.

# Tested on: VanA and VanB gene sequences
# Test name: HPA for detecting VanA and VanB gene sequences (Example 12)
# Type: binding, E. faecalis, E. faecium
# Measurement setup: Probe Alone (no added target)
Attribute measured: Probe Hybridization (in RLU)
The figure you give is taken to be in RLU; do not add the unit.

| Sequence string | Subject of test | Probe Hybridization (in RLU) |
| --- | --- | --- |
| CGCATCCATCAGGAAAACGAGCCGG (DNA, backbone and methylation of C not given here; acridinium ester (AE) label attached via linker; listed as Enterococcus faecalis) [VanB(+)428] | VanA and VanB gene sequences | 370 |

What value of Probe Hybridization (in RLU) has been recorded for this entry: CCGCAGCTTGCATGGACAAATCACTGGC (DNA, backbone and methylation of C not given here; further chemistry not fully specified; listed as Enterococcus faecalis) [VanB(+)084] 371
